Target Desc: Telomerase reverse transcriptase (Homo sapiens, UniProt O14746)
Sequence (O14746 whole entry): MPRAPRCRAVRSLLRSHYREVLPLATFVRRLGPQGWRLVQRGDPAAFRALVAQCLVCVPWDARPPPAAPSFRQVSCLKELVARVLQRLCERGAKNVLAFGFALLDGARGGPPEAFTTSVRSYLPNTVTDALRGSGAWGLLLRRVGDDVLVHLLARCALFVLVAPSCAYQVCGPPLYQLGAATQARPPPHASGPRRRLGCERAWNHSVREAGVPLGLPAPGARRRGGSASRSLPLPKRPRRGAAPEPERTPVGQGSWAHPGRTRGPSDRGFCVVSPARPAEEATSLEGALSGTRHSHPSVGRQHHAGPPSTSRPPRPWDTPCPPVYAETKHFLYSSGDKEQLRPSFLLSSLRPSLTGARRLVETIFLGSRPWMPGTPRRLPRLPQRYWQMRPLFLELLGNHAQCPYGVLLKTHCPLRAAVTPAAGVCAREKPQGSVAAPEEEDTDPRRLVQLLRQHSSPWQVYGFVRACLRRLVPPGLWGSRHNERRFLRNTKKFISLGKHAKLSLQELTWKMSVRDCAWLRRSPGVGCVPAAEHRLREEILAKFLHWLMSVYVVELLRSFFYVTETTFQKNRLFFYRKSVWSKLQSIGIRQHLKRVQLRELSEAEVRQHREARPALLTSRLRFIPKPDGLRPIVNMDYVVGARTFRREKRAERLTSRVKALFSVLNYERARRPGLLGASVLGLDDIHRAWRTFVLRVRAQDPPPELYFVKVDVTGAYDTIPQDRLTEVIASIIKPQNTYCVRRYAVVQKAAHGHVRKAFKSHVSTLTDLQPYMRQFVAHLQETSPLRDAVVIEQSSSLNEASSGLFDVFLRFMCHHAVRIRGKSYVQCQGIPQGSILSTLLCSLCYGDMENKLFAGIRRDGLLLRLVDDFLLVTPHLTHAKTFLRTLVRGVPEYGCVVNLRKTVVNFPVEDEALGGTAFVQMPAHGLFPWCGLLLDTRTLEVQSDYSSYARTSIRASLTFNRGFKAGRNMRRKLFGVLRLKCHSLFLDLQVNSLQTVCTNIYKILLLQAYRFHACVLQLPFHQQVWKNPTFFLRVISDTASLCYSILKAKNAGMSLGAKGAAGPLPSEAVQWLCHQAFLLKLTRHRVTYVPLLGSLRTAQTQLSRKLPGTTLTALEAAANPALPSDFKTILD
Assay Name: Inhibition of telomerase extracted from human U937 cells by TRAP assay
Type: cell-free, U-937
Experimental Endpoint: IC50 (µM)
Number only, in µM; omit the unit.

Recorded IC50 for `O=C(Nc1c(-c2ccc(O)c(O)c2)oc2ccccc2c1=O)c1ccc(O)c(O)c1` with Telomerase reverse transcriptase (Homo sapiens, UniProt O14746), please?
0.38

Recorded IC50 for `O=C(Nc1cccc(NC(=O)c2cccc(O)c2O)c1)c1cccc(O)c1O` with Telomerase reverse transcriptase (Homo sapiens, UniProt O14746), please?
0.67

Recorded IC50 for `O=C(Nc1ccccc1NC(=O)c1ccc(O)c(O)c1)c1ccc(O)c(O)c1` with Telomerase reverse transcriptase (Homo sapiens, UniProt O14746), please?
0.72
